Item-by-item account of log10(GI50)
# PROTOCOL DETAILS: Cytotoxicity against human MIA cells assessed as growth inhibition after 72 hrs by MTT assay
# Type: functional
ATTRIBUTE MEASURED: log10(GI50) (log10 of the value in µM)

ITEM SMILES	ATTRIBUTE MEASURED	VAL
O=C(NCCc1ccc(O)cc1)c1cc(Br)c(Br)[nH]1	log10(GI50)	1.63
O=C(NCc1ccc(Cl)c(Cl)c1)c1cc(Br)c(Br)[nH]1	log10(GI50)	1.23
O=C(NCc1ccc(Cl)cc1)c1cc(Br)c(Br)[nH]1	log10(GI50)	1.34
O=C(NCC(c1ccccc1)c1ccccc1)c1cc(Br)c(Br)[nH]1	log10(GI50)	1.26
O=C(NCc1ccc(-c2ccccc2)cc1)c1cc(Br)c(Br)[nH]1	log10(GI50)	0.53
O=C(NCc1ccc(-c2ccccc2)cc1)c1ccc[nH]1	log10(GI50)	0.81
